Molecular target: human GABAA α2β2γ1 receptor (Homo sapiens (Human), UniProt P47869+Q8N1C3)
Test: Radioligand binding assay, competition for [3H]RO7239181, γ1-containing GABAA subtype α2β2γ1
Details: Ki α1β3γ2 (nM)/Ki α2β2γ1 (nM)
Entries and their measured γ2/γ1 Selectivity Ratio follow.
Measure Name: γ2/γ1 Selectivity Ratio

Cpd Smiles: Cc1cn2c(nc1=O)[C@H](C)N=C(c1c(F)cccc1F)c1c-2ccc(Cl)c1Cl
Endpoint Result: 61.2

Cpd Smiles: CCOCCc1cn2c(nc1=O)CN=C(c1c(F)cccc1F)c1c-2ccc(Cl)c1Cl
Endpoint Result: 60.1

Cpd Smiles: CCOCCc1cn2c(nc1=O)[C@H](C)N=C(c1c(F)cccc1F)c1c-2ccc(Cl)c1Cl
Endpoint Result: 61.6

Cpd Smiles: CCc1cn2c(nc1=O)[C@H](C)N=C(c1c(F)cccc1F)c1c-2ccc(Cl)c1Cl
Endpoint Result: 58.4
